assay: Anti-HCMV cytopathogenicity test: cytostatic effects on NHDF cells; format: cell-based; settings: human, NHDF cells (human prepuce fibroblasts), maximum substance concentration with no visible cytostatic effects vs untreated cell control
# if measured CC50 at 6 days < 30 µM: 1.0  # else: 0.0

Sample answers from the record:
structure_string: Cn1cc(NC(=O)Nc2ccc(OC(F)(F)F)cc2)nc1C(=O)N1CCN(c2ccccn2)CC1
category: 0.0
--
structure_string: Cc1ccc(N2CCN(C(=O)c3nc(NC(=O)Nc4ccc(OC(F)(F)F)cc4)cn3C)CC2)nc1
category: 1.0
--
structure_string: Cc1ccc(N2CCN(C(=O)c3nc(NC(=O)Nc4ccc(OC(F)(F)F)cc4)cn3CC3CC3)CC2)nc1
category: 1.0

Would you kindly verify if CC50 at 6 days of Cn1cc(NC(=O)Nc2ccc(OC(F)(F)F)cc2)nc1C(=O)N1CCN(c2ccc(C#N)cn2)CC1 is strictly less than 30 µM?
1.0

Would you kindly verify if CC50 at 6 days of COc1ccc(N2CCN(C(=O)c3nc(NC(=O)Nc4ccc(OC(F)(F)F)cc4)cn3C)CC2)nc1 is strictly less than 30 µM?
0.0

Entry source: patent US7919489B2
